Taken from paper doi:10.1101/2025.01.28.635346v1.

biological target: integrin α8β1 (Homo sapiens, UniProt P05556+P53708); test: ELISA competition assay, integrin α8β1; format: binding; settings: read-out: α8β1 IC50; ELISA competition
experimentalEndpoint: IC50 (nM)

molecule: COc1ccc([C@H](CC(=O)O)N2CCN(CCCc3ccc4c(n3)NCCC4)C2=O)cn1 [MK-0429, reference compound]
experimentalEndpoint: IC50
reportedMeasurement: 9

###

molecular target: integrin αvβ3 (Homo sapiens, UniProt P05106+P06756); assay: ELISA competition assay, integrin αvβ3; assay type: binding; conditions: read-out: αvβ3 IC50; ELISA competition; mean, n ≥ 3

compound: COc1ccc([C@H](CC(=O)O)N2CCN(CCCc3ccc4c(n3)NCCC4)C2=O)cn1 [MK-0429, reference compound]
IC50: 0.7 nM

###

Target: Mouse αvβ6 (Mus musculus, UniProt P43406+Q9Z0T9)
Sequence (P43406 31-988 limits assumed): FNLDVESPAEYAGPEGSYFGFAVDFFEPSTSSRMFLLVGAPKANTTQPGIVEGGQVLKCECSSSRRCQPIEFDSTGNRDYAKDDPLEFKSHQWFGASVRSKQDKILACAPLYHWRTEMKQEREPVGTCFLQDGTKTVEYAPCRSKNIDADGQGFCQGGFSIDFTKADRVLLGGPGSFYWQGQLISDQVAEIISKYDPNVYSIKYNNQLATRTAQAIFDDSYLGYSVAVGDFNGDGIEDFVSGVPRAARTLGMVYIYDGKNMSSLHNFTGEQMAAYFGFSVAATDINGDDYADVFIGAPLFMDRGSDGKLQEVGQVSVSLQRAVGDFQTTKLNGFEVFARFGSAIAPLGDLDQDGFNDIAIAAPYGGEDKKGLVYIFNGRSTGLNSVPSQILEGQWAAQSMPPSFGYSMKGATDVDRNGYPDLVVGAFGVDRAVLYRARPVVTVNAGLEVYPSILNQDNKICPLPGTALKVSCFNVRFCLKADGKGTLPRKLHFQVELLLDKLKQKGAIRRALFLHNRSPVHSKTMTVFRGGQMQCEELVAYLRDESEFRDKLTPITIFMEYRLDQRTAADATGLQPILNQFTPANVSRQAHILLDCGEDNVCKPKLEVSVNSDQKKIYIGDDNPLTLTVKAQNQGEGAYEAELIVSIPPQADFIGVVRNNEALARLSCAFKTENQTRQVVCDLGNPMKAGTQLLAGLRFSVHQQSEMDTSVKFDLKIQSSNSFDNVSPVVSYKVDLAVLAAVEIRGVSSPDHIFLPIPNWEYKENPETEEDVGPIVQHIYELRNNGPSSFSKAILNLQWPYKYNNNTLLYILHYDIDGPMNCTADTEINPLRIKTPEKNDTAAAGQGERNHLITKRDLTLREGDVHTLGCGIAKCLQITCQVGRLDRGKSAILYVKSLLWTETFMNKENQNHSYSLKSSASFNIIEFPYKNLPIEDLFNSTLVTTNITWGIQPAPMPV
Sequence (Q9Z0T9 22-707 limits assumed): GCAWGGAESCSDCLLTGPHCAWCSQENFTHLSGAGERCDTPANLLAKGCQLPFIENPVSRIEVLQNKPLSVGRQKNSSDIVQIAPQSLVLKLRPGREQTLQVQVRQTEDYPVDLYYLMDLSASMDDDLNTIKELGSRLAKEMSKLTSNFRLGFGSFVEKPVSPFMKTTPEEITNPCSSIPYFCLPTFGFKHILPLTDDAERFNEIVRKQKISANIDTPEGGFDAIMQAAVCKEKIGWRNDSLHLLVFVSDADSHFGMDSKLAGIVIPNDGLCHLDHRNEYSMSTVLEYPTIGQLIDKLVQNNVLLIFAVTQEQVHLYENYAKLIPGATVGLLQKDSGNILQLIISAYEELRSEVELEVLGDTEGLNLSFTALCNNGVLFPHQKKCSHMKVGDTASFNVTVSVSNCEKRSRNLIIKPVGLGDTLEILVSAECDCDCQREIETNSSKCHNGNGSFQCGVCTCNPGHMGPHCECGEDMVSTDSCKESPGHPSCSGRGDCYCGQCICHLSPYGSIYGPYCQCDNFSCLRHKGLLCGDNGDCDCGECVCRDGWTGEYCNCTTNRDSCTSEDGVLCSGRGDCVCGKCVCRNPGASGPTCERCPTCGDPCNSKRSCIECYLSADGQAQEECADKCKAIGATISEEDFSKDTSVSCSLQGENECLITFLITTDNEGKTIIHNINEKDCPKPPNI
Experiment: ELISA competition assay, mouse integrin αvβ6
Type: binding
Settings: read-out: Mouse αvß6 IC50; ELISA run in triplicate, mean; Table S1

molecule: COc1ccc([C@H](CC(=O)O)N2CCN(CCCc3ccc4c(n3)NCCC4)C2=O)cn1 [MK-0429, reference compound]
IC50 [nM]: 2
